- TESTED SYSTEM: T1, mouse B7-H4ECD mIgG2a Fc fusion protein (mouse, UniProt Q7TSP5 25-257, limits assumed)
- T1 construct: also called mouse B7-H4-mIg fusion protein; Mouse B7-H4-mouse-Ig Fusion Protein; not shown: mouse IgG2a Fc
- T1 sequence: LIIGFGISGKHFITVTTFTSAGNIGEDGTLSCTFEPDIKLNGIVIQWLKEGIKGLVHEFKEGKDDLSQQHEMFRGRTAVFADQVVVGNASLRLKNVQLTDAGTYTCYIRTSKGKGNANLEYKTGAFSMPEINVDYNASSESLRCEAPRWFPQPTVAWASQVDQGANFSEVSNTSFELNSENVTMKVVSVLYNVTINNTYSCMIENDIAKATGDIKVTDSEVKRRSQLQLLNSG
- ASSAY OVERVIEW: ELISA, mouse B7-H4ECD mIgG2a Fc fusion coated
# EC50 annotations
Give the value in nM but do not write nM after it.

>>> numeric_readout("humanized 6H3 variant 11 (antibody, V domains shown, also called V11; H2C L2B) VH: EVQLVQSGAEMKKPGASVKVSCKASGYTFTDYYMNWVRQAPGQSLEWIGVINPYNGDTTYNQKFQGRVTVTVDKSATTAYMELSSLRSEDTAVYYCARYPESTYWGQGTLVTVSS VL: DIVMTQTPLSLPVTLGQPASISCRSSQSLVHINGNTYLHWYQQRPGQSPRVLIYKVSNRFSGVPDRFSGSGSGTDFTLKISRVEAEDVGVYFCSQSTHVPLTFGQGTKVEIK")
0.11
>>> numeric_readout("humanized 6H3 variant 10 (antibody, V domains shown, also called V10; H2B L2B) VH: EVQLVQSGAEMKKPGASVKVSCKASGYTFTDYYMNWVRQAPGQSLEWMGVINPYNGDTTYNQKFQGRVTVAVDKSATTAYMELSSLRSEDTAVYYCARYPESTYWGQGTLVTVSS VL: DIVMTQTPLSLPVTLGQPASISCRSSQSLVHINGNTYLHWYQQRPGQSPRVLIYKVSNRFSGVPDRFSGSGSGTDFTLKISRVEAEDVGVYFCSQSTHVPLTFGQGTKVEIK")
0.13

Here's the next entry for you.
Field request: EC50 | item: humanized 6H3 variant 8 (antibody, V domains shown, also called V8; H1A L2B) VH: QVQLVQSGAEVKKPGASVKVSCKASGYTFTDYYMHWVRQAPGQGLEWMGIINPYNGDTSYAQKFQGRVTMTRDTSTSTVYMELSSLRSEDTAVYYCARYPESTYWGQGTLVTVSS VL: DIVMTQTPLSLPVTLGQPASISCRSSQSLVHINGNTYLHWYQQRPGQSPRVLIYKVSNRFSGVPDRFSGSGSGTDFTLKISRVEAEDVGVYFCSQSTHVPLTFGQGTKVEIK 0.06
